system: SF-295 CNS; assay: NCI tumour cell line growth inhibition, 48 h
test-readout: GI50

Please review the entries below; each comes with its answer.
[[record]]
compound = "COc1ccc2c(c1)CC[C@@H]1[C@@H]2CC[C@@]2(C)[C@H]1CC1(CCCCC1)[C@@H]2O"
endpoint_result = "9050 nM"

[[record]]
compound = "Cn1c(COC(=O)N2CCCCC2)nc2c(N3CCOCC3)nc(-c3ccccc3)nc21"
endpoint_result = "1580 nM"

[[record]]
compound = "CN1C(=O)CNC(=O)[C@H](NC(=O)c2nc3ccccc3cc2O)CSSC[C@H]1C(=O)NCCc1nc2ccccc2cc1O"
endpoint_result = "14300 nM"

[[record]]
compound = "COc1cnc2c(c1)C(=O)c1c-2n(CCCn2ccnc2)c(=O)c2cc(Cl)ccc12"
endpoint_result = "25.1 nM"

[[record]]
compound = "CCCCCCCCCCCCCCCc1cc(O)ccc1N"
endpoint_result = "3460 nM"


Item: `CN1CCN(c2ccc3nc(-c4cc(C(C)(C)C)c(O)c(C(C)(C)C)c4)[nH]c3c2)CC1` | GI50: 1830 nM

Item: `CCCCC(=O)N/N=C/c1cc(I)cc(I)c1O` | GI50: 2450 nM

Item: `Brc1ccc([I+]c2ccc(Br)cc2)cc1` | GI50: 1700 nM

Item: `COC(=O)CCC(=O)c1c(C)[nH]c(/C=C2\N=C(c3ccc[nH]3)C=C2OC)c1C` | GI50: 1620 nM

Item: `O=C(COc1cccc(/C=C2\COc3ccccc3C2=O)c1)Nc1nccs1` | GI50: 1730 nM

Item: `CCCN(CCC)c1ccc(CO)c(C)c1` | GI50: > 100000 nM

Item: `CC(C)(C)c1ccc([I+]c2ccc(C(C)(C)C)cc2)cc1` | GI50: 2220 nM

Item: `CCC[CH2][Sn]([CH2]CCC)([O]C(=O)c1cccc(F)c1)[O]C(=O)c1cccc(F)c1` | GI50: 1480 nM

Item: CC(ONC(=O)c1cc(C(F)(F)F)cc(C(F)(F)F)c1)C(=O)Nc1ccc(Cl)cc1 (centres undefined) | GI50: 3660 nM

###

system: SK-MEL-5 melanoma; experiment: NCI tumour cell line growth inhibition, 48 h
test-readout: TGI (µM)
Field: numeric (µM). Do not append units.

Item: `C=C(C=O)c1c2c(nc3ccccc13)C(=O)c1ccccc1C2=O` | TGI: 0.339

###

test system: HOP-62 NSCLC; test: NCI tumour cell line growth inhibition, 48 h
Each entry below carries its recorded TGI.

Please review the entries below; each comes with its answer.
[[record]]
compound = "Cc1nc2c(o1)C(=O)c1ccccc1/C2=N/c1ccccn1"
test_readout = "TGI"
endpoint_result = "37.8 µM"

[[record]]
compound = "Cn1c(=O)cc2c3c(c(NCCCO)ccc31)C(=O)c1ccccc1-2"
test_readout = "TGI"
endpoint_result = "> 100 µM"

[[record]]
compound = "COC(=O)NCCc1[nH]nc2c1C(=O)C=C(Nc1ccccc1)C2=O"
test_readout = "TGI"
endpoint_result = "> 100 µM"

[[record]]
compound = "CC(=O)O[C@@H]1CO[C@H]2O[C@H]3[C@@H](C(C=O)=C[C@H](O)[C@@H]4C5=C(C(C)C)CC[C@]5(C)CC[C@@]34C)[C@@]2(O)C1=O"
test_readout = "TGI"
endpoint_result = "1.82 µM"

[[record]]
compound = "CCP(=O)(CC)C(Cl)(Cl)C(O)C(C)(C)C (stereo not given)"
test_readout = "TGI"
endpoint_result = "> 100 µM"

[[record]]
compound = "O=C(CN1CCN(C(=O)OCc2ccccc2)CCN(CC(=O)N2CCCCC2)CCN(C(=O)OCc2ccccc2)CC1)N1CCCCC1"
test_readout = "TGI"
endpoint_result = "42.2 µM"

[[record]]
compound = "CC1C(c2ccc3c(c2)OCO3)c2cc3c(cc2OC1N1CCCC1)OCO3 (stereo not given)"
test_readout = "TGI"
endpoint_result = "> 100 µM"

[[record]]
compound = "CCOP(=O)(/C=C\\n1cnc2c(=O)n(C(C)=O)c(N)nc21)OCC"
test_readout = "TGI"
endpoint_result = "> 100 µM"


Item: O=C(O)C1C2CC3C(OC(=O)C31)C2Br (stereo not given) | TGI: > 100 µM

Item: CC(=O)N1CC2Nc3ccccc3C2CC1CO (stereo not given) | TGI: > 100 µM

Item: `O=C1OCC(C#Cc2ccccc2)=C1Cl` | TGI: 1.7 µM

Item: CCCCCCCCCCCCCCCC(=O)OCC(O)C1OC(=O)C(O)=C1O (stereo not given) | TGI: 60.3 µM

Item: `O=c1ccccc2cccc(O)c12` | TGI: > 100 µM

Item: `CCOP(=O)(Nc1ccc(-c2ccccc2)cc1)OCC` | TGI: > 100 µM

Item: `CC(=O)Oc1ccc2c(c1)c1c(=O)oc(N(C)C)nc1n2Cc1ccccc1` | TGI: > 100 µM

Item: `O=C(O)CSCC(=O)Nc1ccc2cccc3c2c1CC3` | TGI: > 100 µM

Item: CC1CCCC2=C1C(c1ccc(Cl)cc1)n1c(s/c(=C\c3ccc(Cl)cc3)c1=O)=N2 (stereo not given) | TGI: > 100 µM

###

tested on: U251 CNS
Valid outcomes are listed here; reply with one: Yes = active, No = inactive

Example entries begin here.
[[record]]
item_smiles = "CC1(C)N=C(N)N=C(N)N1c1ccc(F)c(C(F)(F)F)c1"
experimental_target = "U251 CNS"
classification = "No"

[[record]]
item_smiles = "C(=C1c2ccccc2-c2ccccc21)c1ccccn1"
experimental_target = "U251 CNS"
classification = "No"

[[record]]
item_smiles = "COc1ccc(O)c(C(=O)c2ccc(C(=O)O[C@@H]3CCCNC[C@H]3NC(=O)c3ccncc3)cc2)c1F"
experimental_target = "U251 CNS"
classification = "No"

[[record]]
item_smiles = "CCCCCCCCCCCCCCCc1cc(O)ccc1N"
experimental_target = "U251 CNS"
classification = "No"

[[record]]
item_smiles = "COc1cccc(/C=N\\Nc2ccc([N+](=O)[O-])cn2)c1O"
experimental_target = "U251 CNS"
classification = "No"

[[record]]
item_smiles = "O=C(Nc1cc(C(F)(F)F)ccc1F)Nc1n[nH]c2ccccc12"
experimental_target = "U251 CNS"
classification = "No"

[[record]]
item_smiles = "Brc1ccc([I+]c2ccc(Br)cc2)cc1"
experimental_target = "U251 CNS"
classification = "No"

[[record]]
item_smiles = "COc1ccc2c(c1)c(C1(c3cn(C)c4ccc(OC)cc34)C(=O)Nc3ccc(F)cc31)cn2C"
experimental_target = "U251 CNS"
classification = "No"

[[record]]
item_smiles = "CCc1c2c(nc3cc4c(cc13)OCO4)-c1cc3c(c(=O)n1C2)COC(=O)[C@@]3(CC)OC(=O)CN"
experimental_target = "U251 CNS"
classification = "Yes"

[[record]]
item_smiles = "CCC[C@H](N[C@@H]1CCc2cc(F)cc(F)c2C1)C(=O)Nc1cn(C(C)(C)CNCC(C)(C)C)cn1"
experimental_target = "U251 CNS"
classification = "No"


# input for lookup
Recorded call for `COc1ccc(-c2n[nH]nc2-c2csc3ccccc23)cc1OC` ? No

###

tested on: SK-OV-3 ovarian; assay: NCI tumour cell line growth inhibition, 48 h; in the data active means GI50 below about 0.43 µM; inactive means the rest
Valid outcomes are listed here; reply with one: true (1) for active, false (0) for inactive

Example entries begin here.
[[record]]
compound = "CCN(CC)CCOc1ccc(/C=C2\\CC3C4CCC5=CC(=O)CC[C@]5(C)C4CC[C@]3(C)C2=O)cc1OC (some centres undefined)"
classification = "false (0)"

[[record]]
compound = "O=C1/C(=C/c2ccccc2Cl)N=C(c2ccccc2)N1Cc1ccco1"
classification = "false (0)"

[[record]]
compound = "Brc1ccc([I+]c2ccc(Br)cc2)cc1"
classification = "false (0)"


# input for lookup
Recorded call for `O=C(Nc1cc(C(F)(F)F)ccc1F)Nc1n[nH]c2ccccc12` ? false (0)

###

tested on: OVCAR-8 ovarian; test: NCI tumour cell line growth inhibition, 48 h
Each entry below carries its recorded TGI.

[[record]]
compound = "O=C1CCCC/C1=C/C=C/c1ccccc1"
endpoint_result = "> 100 µM"

[[record]]
compound = "CCP(=O)(CC)C(Cl)(Cl)C(O)C(C)(C)C (centres undefined)"
endpoint_result = "> 100 µM"

[[record]]
compound = "O=C1c2ccccc2-c2nc(-c3cccnc3)cc3c2c1nc1ccccc13"
endpoint_result = "> 100 µM"

[[record]]
compound = "O=C1C=C(Nc2ccccc2C(=O)CC(=O)C(=O)Nc2cccc(C(F)(F)F)c2)c2ccccc2C1=O"
endpoint_result = "56.4 µM"

[[record]]
compound = "CC(=O)[O-].CC(=O)[O-].O=C(N/N=C/c1cc(Cl)cc(Cl)c1[OH2+])c1ccncc1.[Co+2]"
endpoint_result = "> 100 µM"


Item: `O=c1ccccc2cccc(O)c12` | TGI: > 100 µM
